Experiment notes: Bioavailability of Tretinoin following multiple topical administration of 0.1 % tretinoin gel to 44 male and female subjects.
Assay type: ADME, organism-based
Stated conditions: both, human, in vivo, topical or ocular, dosed compound id 14, dosed compound name TRETINOIN, gender male and female, regimen Multiple dose, study dosing duration 28 days, tissue Plasma
Value type: bioavailability (%)
Give bare numbers, in %.

Data request: bioavailability lookup needed for "CC1=C(/C=C/C(C)=C/C=C/C(C)=C/C(=O)O)C(C)(C)CCC1" , thanks.
Data returned: 1.41
